B1: library; a variant is named by its letters at N, in order (parent)
chain: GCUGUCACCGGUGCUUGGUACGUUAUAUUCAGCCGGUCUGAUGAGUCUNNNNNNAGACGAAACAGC

Variants of: B1
ASSAY: normalized RNA/DNA level without ligand (relative to sTRSVctl = 100) (log10 (% of sTRSVctl)); HEK293T overexpressing SLC46A1; higher = less ribozyme self-cleavage, higher mRNA level
ASSAY CONDITIONS: without (6R,S)-folinic acid; ligand present: no
Outcome label depends on normalized RNA/DNA level without ligand (log10) relative to 2: at/above gives condition met, below gives condition not met.

{"CHANGES": "ACCGGU", "GROUP LABEL": "condition met"}
{"CHANGES": "ACAUCC", "GROUP LABEL": "condition met"}
{"CHANGES": "GUAUAU", "GROUP LABEL": "condition not met"}
{"CHANGES": "UAAUAU", "GROUP LABEL": "condition not met"}
{"CHANGES": "CCCCCU", "GROUP LABEL": "condition met"}
{"CHANGES": "CUUGUC", "GROUP LABEL": "condition met"}
{"CHANGES": "GCAUGG", "GROUP LABEL": "condition not met"}
